biological target: Gal6S(b1-3)GlcNAc; experiment: glycan array binding signal (z-score within array); higher = stronger binding; conditions: glycan notation: IUPAC condensed, linker removed
Many of the other results were omitted from the sample, so the strongest signals are more common in it than they were.
Property: glycan array binding signal (z-score); scope: individual binders
experimental-readout: glycan array binding signal (z-score)

binder="rCnSL-A (Clitocybe nebularis) (protein) VNPNLPGPNDVFVGFRGTNNIVGAIYEKDGIKDTPLNNGADAEMGPGSYITDGLFTARIFASGSAGNNPGTTATVCKIYASGVQWRGAPKGYIPVAYFGNGPTAEQRRQTYLRTLGLPGTAIRFGNLNTNPGQGPTAPRQMVVPPGPLRSLLKASCFPAADTRLPQTLHYFEKRVDWNIITAADSQTWGH" observed_result=-0.309
binder="Langerin K299A/K313A (Homo sapiens), Q9UJ71 (protein) STLNAQIPELKSDLEKASALNTKIRALQGSLENMSKLLKRQNDILQVVSQGWKYFKGNFYYFSLIPKTWYSAEQFCVSRNSHLTSVTSESEQEFLYKTAGGLIYWIGLTKAGMEGDWSWVDDTPFNKVQSARFWIPGEPNNAGNNEHCGNIAAPSLQAWNDAPCDATFLFICKRPYVPSEP" observed_result=-0.241
binder="rCNL (Clitocybe nebularis), B2ZRS9 (protein) SITPGTYNITNVAYTNRLIDLTGSNPAENTLIIGHHLNKTPSGYGNQQWTLVQLPHTTIYTMQAVNPQSYVRVRDDNLVDGAALVGSQQPTPVSIESAGNSGQFRIKIPNLGLALTLPSDANSTPIVLGEVDETSTNQLWAFESVSAV" observed_result=-0.224
binder="VLRB.aGPA.23-GCN4-biotin (Petromyzon marinus) (protein) ACPSQCSCSGTEVNCAGKSLASVPAGIPTTTRVLYLNSNQITKLEPGVFDRLANLRELHLWGNQLVSLPPGVFDNLANLEKLWLNSNQLTSLPAGLFDRLVNLEHLGLCCMKLTELPSGAFDKLTRLKQLGLDQNQLKSIPDGAFARLPSLTHVWLHTNPWDCQCTDILYLSGWVAQHSSIVGEGWPWRHSPDSAKCSGTNTPVRAVTEASTSPSKCP" observed_result=0.341
binder="Layilin (Mus musculus), Q8C351 (protein) MQPGAALQAMLLAVLLAKPRDSKGRLLSASDLDPRGGQLVCRGGTRRPCYKVIYFHDAFQRLNFEEAKETCMEDGGQLVSIETEDEQRLIEKFIENLLASDGDFWIGLKRLEEKQSNNTACQDLYAWTDGSTSQFRNWYVDEPSCGSEVCVVMYHQPSAPPGIGGSYMFQWNDDRCNMKNNFICKYHDDKPSTTPSIWPGGEATEPATPLLPEETQKEDTKETFKERREAALNLAYILIPSIPLFLLLVVTSAVCWVWICRRKREQTDPSTKEQHTIWPTPRQENSPNLDVYNVIRKQSEADLAEPRPDLKNISFRVCSGEAMPDDMSCDYENIAVNPSESGFVTLASMESGFVTNDIYEFSPDRMGRSKESGWVENEIYY" observed_result=-0.243
